Listed here: items and their measured pIC50.
TARGET_UNDER_TEST: UniProt:Q06187
EXPERIMENT_NOTES: Inhibitory activity against Bruton kinase (BTK) at molecular level (ELISA)
Type: biochemical
pIC50: −log10 of the molar value.

CHEM_SMILES	pIC50
CC#CC(=O)N[C@@H]1CCc2c(-c3ccc(Oc4ccccc4)cc3)c3c(N)ncnc3n2C1	8.00 to 9.00
C=C1c2c(-c3ccc(Oc4ccccc4)cc3)c3c(N)ncnc3n2C[C@@H]1NC(=O)C#CC	> 9.00

###

System: human B lymphoma Ramos cells
EXPERIMENT_NOTES: In vitro proliferation inhibition of Ramos cells (MTT)
Assay type: cell-based
MEASUREMENT_PARAMETERS: Homo sapiens; Ramos cells, 48 hours, MTT
pIC50: −log10 of the molar value.
Listed here: items and their measured pIC50.
ASSAY_ENDPOINT: pIC50

COMPOUND	TARGET_UNDER_TEST	ASSAY_ENDPOINT	ENDPOINT_RESULT
C=CC(=O)NCC(=O)N[C@@H]1CCc2c(-c3ccc(Oc4ccccc4)cc3)c3c(N)ncnc3n2C1	human B lymphoma Ramos cells	pIC50	5.26
C=CC(=O)N[C@@H]1CCc2c(-c3ccc(Oc4ccccc4)cc3)c3c(N)ncnc3n2C1	human B lymphoma Ramos cells	pIC50	4.02
C=C1c2c(-c3ccc(Oc4ccccc4)cc3)c3c(N)ncnc3n2C[C@@H]1NC(=O)C#CC	human B lymphoma Ramos cells	pIC50	4.77
CC#CC(=O)N[C@@H]1CCc2c(-c3ccc(Oc4ccccc4)cc3)c3c(N)ncnc3n2C1	human B lymphoma Ramos cells	pIC50	5.06
C=CC(=O)NC1CCc2c(-c3ccc(Oc4ccccc4)cc3)c3c(N)ncnc3n2C1 (racemic)	human B lymphoma Ramos cells	pIC50	4.94
CN(C)C/C=C/C(=O)N[C@@H]1CCc2c(-c3ccc(Oc4ccccc4)cc3)c3c(N)ncnc3n2C1	human B lymphoma Ramos cells	pIC50	5.18

###

TARGET_UNDER_TEST: BTK tyrosine kinase protein (Homo sapiens (Human), UniProt Q06187)
Sequence (Q06187 whole entry): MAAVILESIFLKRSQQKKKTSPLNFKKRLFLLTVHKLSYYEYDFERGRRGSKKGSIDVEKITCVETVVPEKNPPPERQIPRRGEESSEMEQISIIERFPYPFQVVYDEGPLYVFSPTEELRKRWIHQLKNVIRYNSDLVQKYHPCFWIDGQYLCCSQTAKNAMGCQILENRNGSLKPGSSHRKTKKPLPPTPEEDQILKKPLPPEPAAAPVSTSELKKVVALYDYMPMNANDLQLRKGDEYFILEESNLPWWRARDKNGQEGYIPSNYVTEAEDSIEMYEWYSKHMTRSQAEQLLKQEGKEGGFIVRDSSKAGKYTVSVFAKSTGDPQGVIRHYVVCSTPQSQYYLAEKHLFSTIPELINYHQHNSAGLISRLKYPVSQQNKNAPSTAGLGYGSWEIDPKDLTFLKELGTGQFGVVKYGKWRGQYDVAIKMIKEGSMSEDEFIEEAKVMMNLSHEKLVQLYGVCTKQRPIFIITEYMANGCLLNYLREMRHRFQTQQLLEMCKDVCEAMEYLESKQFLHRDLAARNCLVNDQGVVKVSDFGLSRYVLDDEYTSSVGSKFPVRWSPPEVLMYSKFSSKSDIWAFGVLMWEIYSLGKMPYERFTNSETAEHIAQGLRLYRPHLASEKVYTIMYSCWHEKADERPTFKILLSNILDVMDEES
EXPERIMENT_NOTES: Inhibitory activity against Bruton kinase (BTK) at molecular level (ELISA)
Format: biochemical
MEASUREMENT_PARAMETERS: BTK kinase ELISA, ATP 10 μM; read-out: IC50

MOLECULE	IC50
C=CC(=O)N[C@@H]1CCc2c(-c3ccc(Oc4ccc(C(F)(F)F)cc4)cc3)c3c(N)ncnc3n2C1 [Compound S12]	< 1 nM
C=CC(=O)N[C@H]1Cn2c(c(-c3ccc(Oc4ccccc4)cc3)c3c(N)ncnc32)C1C (some centres unmarked) [Compound S21]	1 to 10 nM
C=CC(=O)NCC(=O)N[C@@H]1CCc2c(-c3ccc(Oc4ccccc4)cc3)c3c(N)ncnc3n2C1 [Compound S6]	1 to 10 nM
C=CC(=O)N[C@H]1Cn2c(c(-c3ccc(C(=O)Nc4ccccn4)cc3)c3c(N)ncnc32)C1C (some centres unmarked) [Compound S22]	1 to 10 nM
CC(C)(C)C=C(C#N)C(=O)N[C@@H]1CCc2c(-c3ccc(Oc4ccccc4)cc3)c3c(N)ncnc3n2C1 [Compound S4]	> 100 nM
C=CC(=O)N[C@H]1Cn2c(c(-c3ccc(C(=O)Nc4ccccn4)cc3)c3c(N)ncnc32)C1=C [Compound S20]	1 to 10 nM
C=CC(=O)N[C@H]1Cn2c(c(-c3ccc(Oc4ccccc4)cc3)c3c(N)ncnc32)C1=C [Compound S18]	1 to 10 nM
C=CC(=O)N[C@@H]1CCc2c(-c3ccc(C(=O)Nc4ccc(F)cn4)cc3)c3c(N)ncnc3n2C1 [Compound S15]	1 to 10 nM
C=CS(=O)(=O)N[C@@H]1CCc2c(-c3ccc(Oc4ccccc4)cc3)c3c(N)ncnc3n2C1 [Compound S9]	10 to 100 nM
C=CC(=O)N[C@@H]1CCc2c(-c3ccc(C(=O)Nc4ccccn4)cc3)c3c(N)ncnc3n2C1 [Compound S13]	1 to 10 nM
C=CC(=O)NC1(C(=O)N[C@@H]2CCc3c(-c4ccc(Oc5ccccc5)cc4)c4c(N)ncnc4n3C2)CC1 [Compound S8]	> 100 nM
C=CC(=O)N[C@@H]1CCc2c(-c3ccc(C(=O)Nc4cc(C(F)(F)F)ccn4)cc3)c3c(N)ncnc3n2C1 [Compound S16]	1 to 10 nM
C=CC(=O)N[C@@H]1CCc2c(-c3ccc(C(=O)N[C@@H](COC)c4ccccc4)cc3)c3c(N)ncnc3n2C1 [Compound S17]	1 to 10 nM
C=CC(=O)NC(C)C(=O)N[C@@H]1CCc2c(-c3ccc(Oc4ccccc4)cc3)c3c(N)ncnc3n2C1 (some centres unmarked) [Compound S7]	10 to 100 nM
CC#CC(=O)N[C@@H]1CCc2c(-c3ccc(C(=O)Nc4ccccn4)cc3)c3c(N)ncnc3n2C1 [Compound S14]	1 to 10 nM
CN(C)C/C=C/C(=O)N[C@@H]1CCc2c(-c3ccc(Oc4ccccc4)cc3)c3c(N)ncnc3n2C1 [Compound S5]	< 1 nM
C=CC(=O)N[C@@H]1CCc2c(-c3ccc(Oc4ccc(F)cc4)cc3)c3c(N)ncnc3n2C1 [Compound S11]	< 1 nM
